# Method summary: gradient 5% acetonitrile 3 min, to 50% in 2 min, to 85% in 15 min, held 3 min, 100 µL/min
# Measurement context: column: Zorbax Extend-C18 2.1 x 50 mm; eluents: water / acetonitrile, 0.1% formic acid
In this section we review reported RP-LC retention time values for a set of compounds.

Compound	RP-LC retention time [s]
CCc1csc(-c2ccc(N3CCN(C(=O)c4cccs4)CC3)nc2)n1	900
Cc1cccc(NS(=O)(=O)c2cc(-c3[nH]ncc3C(=O)N(C)C)oc2C)c1	678
CCC1Oc2ccc(S(=O)(=O)N3CCC(C(=O)Nc4cc(Cl)ccc4C)CC3)cc2NC1=O (stereo unspecified)	948
CCc1cccc(C)c1Nc1c(-c2ccc(O)c(OC)c2)nc2ncccn12	686
COc1ccc(NC(=O)N2CCC3(C2)C(=O)N(C)c2ccccc23)cc1F (stereo unspecified)	785
Cc1cccc(NC(=O)C2CCCN(c3nnc(C)c4c(C)n(-c5ccccc5)nc34)C2)c1C (stereo unspecified)	754
CCNC(=O)N1CCCC(c2cccc(C(=O)NCc3ccccc3C(F)(F)F)c2)C1 (stereo unspecified)	905
CN(C)C(=O)c1ccc2c(c1)nc(CN(C)C(=O)Nc1cccc(Br)c1)n2C	642
CC(=O)N1CCc2cc(N3CC(C(=O)NCc4cc(C)ccc4C)CC3=O)ccc21 (stereo unspecified)	742
COCc1nc(CCNS(=O)(=O)c2ccc(F)cc2)no1	731
CCn1c(=O)c(=O)n(CC(=O)NCc2ccc(C)o2)c2cccnc21	688
O=C(NCC1CCOCC1)c1cnc(Nc2ccc(Cl)cc2Cl)nc1C(F)(F)F	997
O=C(NCCSc1ncc(-c2ccccc2)[nH]1)NCc1cccs1	596
CC(C)(C)c1ccc(O)c(NC(=O)c2cn(-c3ccc(S(=O)(=O)N4CCOCC4)cc3)cn2)c1	966
COc1cccc(CC(=O)N2C[C@@H]3C[C@H]2C[C@@H]3NS(=O)(=O)c2ccccc2)c1	764
O=C1CC(CNS(=O)(=O)c2ccc3c(c2)OCCO3)CN1c1ccc(Cl)cc1 (stereo unspecified)	788
CSc1nnc(-c2nn(C)c3c2CN(C(=O)c2ccc(Br)cc2)CC3)n1C	753
CS(=O)(=O)N1CCCC(C(=O)N(Cc2ccccc2)Cc2ccccc2)C1 (stereo unspecified)	886
COc1ccc(N2C=C(C(=O)N3CCCC3)S(=O)(=O)c3ccccc32)cc1	764
CCOC(=O)CC(=O)CSc1nc2ccsc2c(=O)n1Cc1ccc(F)cc1	903
CCn1c(=O)c2ccccc2n(Cc2nc(-c3cccc(OC)c3)no2)c1=O	992
CCc1ccccc1NC(=O)N(C)CC1CCOCC1	730
COc1ccc(C2CC(=O)c3c(C)nc(N4CCN(c5ccccn5)CC4)nc3C2)c(OC)c1 (stereo unspecified)	765
COc1ccc(NC(=O)N2CCC(c3nc(C(=O)N4CCCCC4)c(C)o3)CC2)cc1F	784
COc1ccc(N2CC(C(=O)NCC(=O)N3CCCc4ccccc43)CC2=O)cc1 (stereo unspecified)	724
Cc1cc(=O)n(CC(=O)Nc2cc(F)ccc2F)c(N2CCc3ccccc3C2)n1	849
Cc1ccc(-c2csc(Cc3nc(-c4ccc(F)cc4)no3)n2)c(C)c1	1070
CC(=O)Nc1ccc(SCCCC(=O)N2CCc3ccccc32)nn1	706
O=C(Nc1ccccc1F)C1CC(=O)N(CCc2c[nH]c3ccc(F)cc23)C1 (stereo unspecified)	790
Cc1ccc(CNC(=O)N2CCN(c3ncccc3-c3nnc(C(C)C)o3)CC2)cc1	815
O=C(NCCOc1ccc2nnc(-c3cccc(F)c3)n2n1)c1ccc(=O)[nH]n1	598
